# Test Name: in vitro
# Experimental Parameters: mouse, RAW264.7 macrophage cells induced by LPS, cell viability
Peptide text beside a SMILES is read from it.
Experimental Endpoint: viability at 24 h, 1000 µg/mL

Prompt: State the recorded viability at 24 h, 1000 µg/mL for this entry: N[C@@H](Cc1ccccc1)C(=O)NCC(=O)N1CCC[C@H]1C(=O)N[C@@H](Cc1c[nH]cn1)C(=O)O [FGPH, Phe-Gly-Pro-His] (H-FGPH-OH)
Completion: < 97%

---

# Test Name: in vitro
# Experimental Parameters: mouse, RAW264.7 macrophage cells induced by LPS, cell viability
Peptide text beside a SMILES is read from it.
Experimental Endpoint: viability at 24 h, 250 µg/mL

Prompt: State the recorded viability at 24 h, 250 µg/mL for this entry: N[C@@H](Cc1ccccc1)C(=O)NCC(=O)N1CCC[C@H]1C(=O)N[C@@H](Cc1c[nH]cn1)C(=O)O [FGPH, Phe-Gly-Pro-His] (H-FGPH-OH)
Completion: > 109%

---

# Test Name: in vitro
# Experimental Parameters: mouse, RAW264.7 macrophage cells induced by LPS, cell viability
Peptide text beside a SMILES is read from it.
Experimental Endpoint: viability at 24 h, 500 µg/mL

Prompt: State the recorded viability at 24 h, 500 µg/mL for this entry: N[C@@H](Cc1ccccc1)C(=O)NCC(=O)N1CCC[C@H]1C(=O)N[C@@H](Cc1c[nH]cn1)C(=O)O [FGPH, Phe-Gly-Pro-His] (H-FGPH-OH)
Completion: > 109%
